Values from ChEMBL document CHEMBL1142284

Protocol details: Inhibition of TNFalpha stimulated human NF-kappaB-mediated beta lactamase gene expression in HUVEC
Format: cell-based
The following compounds are listed with their measured IC50 values.

Recorded IC50 for `O=S1(=O)Nc2c(ccc3cccnc23)-c2cc(Cl)ccc21` , please? 1.9 µM

Recorded IC50 for `O=S(=O)(Nc1cccc2cccnc12)c1ccc(Cl)s1` , please? 1 µM

Recorded IC50 for `COc1cc(NS(=O)(=O)c2ccc(C)cc2)c2nc(C)ccc2c1` , please? > 57 µM

Recorded IC50 for `COc1cc(NS(=O)(=O)c2ccc(C)cc2[N+](=O)[O-])c2ncccc2c1` , please? 4 µM

Recorded IC50 for `Nc1ccccc1S(=O)(=O)Nc1cccc2cccnc12` , please? 13.5 µM

***
Recorded IC50 for `O=S(=O)(Nc1cccc2cccnc12)c1cccs1` , please? 7 µM

Recorded IC50 for `Cc1ccc([N+](=O)[O-])cc1S(=O)(=O)Nc1cccc2cccnc12` , please? 1.8 µM
